assay details: Pharmacokinetic studies in Syrian hamsters, PO
Assay type: in vivo
condition context: male, Syrian, hamster, plasma, po, 500 mg/kg, 500 mg/kg PO, 10%DMSO/90% Corn Oil; read-out: AUCLAST
Where a name gives a salt, the structure may show the parent alone.
property: AUC(0-t)

## Input Could you share which AUC(0-t) value was measured for Cc1c(O)cccc1C(=O)N[C@@H](CSc1ccccc1)[C@H](O)CN1C[C@H]2CCCC[C@H]2C[C@H]1C(=O)NC(C)(C)C [Nelfinavir mesylate] ?
## Output 3870 ng·h/mL

====

assay details: HEK293T 72 h CellTiter-Glo cytotoxicity
condition context: human, HEK293T cells
Structures can show the parent of a compound that is named as a salt.
property: CC50 at 72 h (µM)
Respond numerically; units are µM and should not be typed.

{"molecule": "Cc1ccc(NC(=O)c2ccc(CN3CCN(C)CC3)cc2)cc1Nc1nccc(-c2cccnc2)n1 [Imatinib mesylate]", "result value": 15.2}

## Input Could you share which CC50 at 72 h value was measured for CC(C)(C)Cn1c(N)nc2ccc(-c3[nH]c(C(C)(C)C)nc3-c3ccc(F)cc3)nc21 [Ralimetinib mesylate/LY2228820, Ralimetinib mesylate] ?
## Output 20.3

## Input Could you share which CC50 at 72 h value was measured for CCN(CCO)CCCC(C)Nc1ccnc2cc(Cl)ccc12 (stereo not drawn) [Hydroxychloroquine sulfate] ?
## Output 10.1

## Input Could you share which CC50 at 72 h value was measured for NC1(c2ccc(-c3nc4ccn5c(=O)[nH]nc5c4cc3-c3ccccc3)cc2)CCC1 [MK-2206] ?
## Output 3.88

## Input Could you share which CC50 at 72 h value was measured for COc1ccc(C[C@H](N)C(=O)N[C@H]2[C@@H](O)[C@H](n3cnc4c(N(C)C)ncnc43)O[C@@H]2CO)cc1 [Puromycin - cytotoxicity control] ?
## Output 0.829
